Target: PA LDC (Pseudomonas aeruginosa)
Construct: hexahistidine (pET14b N-terminal leader) (N)
Sequence (Q9HTZ1 whole entry): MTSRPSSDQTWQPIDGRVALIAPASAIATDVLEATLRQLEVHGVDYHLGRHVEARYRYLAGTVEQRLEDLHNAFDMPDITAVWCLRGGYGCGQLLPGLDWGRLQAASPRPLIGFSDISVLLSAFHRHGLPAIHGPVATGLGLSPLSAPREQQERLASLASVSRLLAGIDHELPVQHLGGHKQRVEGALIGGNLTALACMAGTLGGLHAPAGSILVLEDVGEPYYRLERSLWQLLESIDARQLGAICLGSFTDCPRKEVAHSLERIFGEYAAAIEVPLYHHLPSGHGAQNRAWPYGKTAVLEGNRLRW
Test: LDC assay (tetrapeptide Lys cleavage, Amplex Red detection of D-Ala) with purified PA LDC
Conditions: 10 minutes preincubation at room temperature before tetrapeptide substrate, read-out: IC50, inhibition of PA LDC
pIC50: −log10 of the molar value.
OBSERVABLE: pIC50

- STRUCTURE SMILES: "O=C(Sc1nc2ccccc2nc1SC(=O)c1cc2ccccc2o1)c1cc2ccccc2o1"
  OBSERVABLE: "pIC50"
  REPORTED MEASUREMENT: 7.00
- STRUCTURE SMILES: "O=C(O)C=CC(=O)c1ccc2c(c1)NC(=O)CO2"
  OBSERVABLE: "pIC50"
  REPORTED MEASUREMENT: 3.77
